Measured values drawn from patent US9598424B2 for this set.

Target: TBK1 (Homo sapiens, UniProt Q9UHD2)
Construct: host or cells: RA1-ISRE beta-lactamase reporter cells
Sequence (Q9UHD2 1-729): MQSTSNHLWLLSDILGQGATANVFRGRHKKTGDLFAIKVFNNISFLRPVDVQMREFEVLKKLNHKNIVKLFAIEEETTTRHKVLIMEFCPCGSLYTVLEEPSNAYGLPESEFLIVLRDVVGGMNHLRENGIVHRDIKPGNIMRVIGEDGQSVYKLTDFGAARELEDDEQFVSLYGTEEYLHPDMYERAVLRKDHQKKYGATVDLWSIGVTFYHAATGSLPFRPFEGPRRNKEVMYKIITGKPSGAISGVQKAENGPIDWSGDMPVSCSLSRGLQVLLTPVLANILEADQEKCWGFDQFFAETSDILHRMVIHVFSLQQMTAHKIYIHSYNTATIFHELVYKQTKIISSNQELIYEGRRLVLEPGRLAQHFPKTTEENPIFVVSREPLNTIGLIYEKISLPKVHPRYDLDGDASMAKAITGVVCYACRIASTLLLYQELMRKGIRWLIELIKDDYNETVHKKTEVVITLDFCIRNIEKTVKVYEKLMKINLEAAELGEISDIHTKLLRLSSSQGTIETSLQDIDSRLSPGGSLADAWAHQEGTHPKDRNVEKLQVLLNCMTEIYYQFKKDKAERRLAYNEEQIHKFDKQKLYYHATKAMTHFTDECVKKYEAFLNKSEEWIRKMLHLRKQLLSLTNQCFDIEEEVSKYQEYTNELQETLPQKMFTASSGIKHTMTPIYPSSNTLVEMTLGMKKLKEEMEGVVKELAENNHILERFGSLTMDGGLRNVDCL
Experiment: Inhibition of TBK1 in Cells (TLR3 driven ISRE β-lactamase reporter assay)
Format: cell-based
Conditions: poly IC-LMW stimulation 16 hrs; -log(EC50), EC50 molar; read-out: Inhibition of TBK1 in cells pEC50 (EC) (converted)
Values of EC50 strictly less than 2000 nM map to TRUE, and values of at least 2000 nM map to FALSE.

Illustrative cases are given below, each with its answer.
>>> df
                                   compound  assignedlabel
0  CC(F)(F)CNC(=O)c1nc(-c2ccc3nc(NC(=O)C4CC4)cn3c2)c[nH]1 [Example 11]           TRUE
1  N#CCC(=O)Nc1cn2cc(-c3csc(C(=O)NCC(F)(F)F)c3)ccc2n1 [Example 17]          FALSE
2  O=C(NCC1CCOC1)c1cc(-c2ccc3nc(NC(=O)C4CC4)cn3c2)cs1 (centres unmarked) [Example 75]           TRUE
3  O=C(NCC1CC1)c1cc(-c2ccc3nc(NC(=O)C4CC4)cn3c2)cs1 [Example 65]           TRUE
4  O=C(NCC(F)F)c1nc(-c2ccc3nc(NC(=O)C4CC4)cn3c2)c[nH]1 [Example 12]           TRUE
5  C[C@H](NC(=O)c1cc(-c2ccc3nc(NC(=O)C4CC4)cn3c2)cs1)C(F)(F)F [Example 80]           TRUE
6  O=C(NC1CCOC1)c1cc(-c2ccc3nc(NC(=O)C4CC4)cn3c2)cs1 (centres unmarked) [Example 70]           TRUE

Now turn to the next compound.
Item Cc1sc(C(=O)NCC(F)(F)F)cc1-c1ccc2nc(NC(=O)C3CC3)cn2c1 [Example 29] : EC50 beneath 2000 nM, strictly?
FALSE
